The values you see were collected from paper PMC7699524.

# System: Caco-2 cells
# Assay Remarks: Permeability across Caco-2 monolayer (apical concentration by LC-MS)
# Condition: Caco-2 monolayer, SL added at 10 µM apical, before experiment
Concentration of SL (Apical Side) t = 0 h vs 9 µM: at or above is class 1, below is class 0.

| Compound | Tested System | Discrete Label |
| --- | --- | --- |
| C=C1C(=O)O[C@H]2[C@H]1CC/C(C)=C/CC[C@@]1(C)O[C@@H]21 [Parthenolide, parthenolide, reference compound] | Caco-2 cells | class 1 |
| C=C1C(=O)O[C@@H]2[C@H]3C(CO)=CC(=O)C3=C(C)C[C@H](OC(=O)Cc3ccc(O)cc3)[C@@H]12 | Caco-2 cells | class 1 |
| CC1=C2C(=O)C=C(CO)C2C2OC(=O)C(C)C2C(OC(=O)Cc2ccc(O)cc2)C1 (stereo not drawn) [11β,13-dihydrolactucopicrin] | Caco-2 cells | class 0 |
| C=C1C(=O)O[C@@H]2/C=C(\C)CC/C=C(\C)CC[C@@H]12 [Costunolide] | Caco-2 cells | class 1 |
| C=C1C(=O)O[C@@H]2[C@H]3C(CO)=CC(=O)C3=C(C)C[C@H](O)[C@@H]12 | Caco-2 cells | class 0 |
